Recorded Ki values (synthetic Aβ(1-40) (Homo sapiens, UniProt P05067)) are given below.
parameter measured: Ki (nM)

Please review the entries below; each comes with its answer.
Oc1ccc2nc(-c3ccc(F)c(Cl)c3)sc2c1 = 130
Cc1ccc(-c2nc3ccccc3s2)cc1 = 19.1
COc1cc(OC)c2sc(-c3ccc(F)cc3)nc2c1 = 33.5
FCCOc1ccc2nc(-c3ccc(F)cc3)sc2c1 = 9.8
N#Cc1ccc2nc(-c3ccc(F)cc3)sc2c1 = 133

[A] Brc1ccc(-c2nc3ccccc3s2)cc1
[B] Ic1ccc(-c2nc3ccccc3s2)cc1
Between A and B , whose measured Ki reads higher? Reply briefly: the label of your chosen item.
A
(A: 8.8 nM, B: 2.6 nM)

----------
pKi: −log10 of the molar value.
Consider the following pKi values measured on synthetic Aβ(1-40) (Homo sapiens).
parameter measured: pKi

// worked examples, pKi included
FCCCOc1ccc2nc(-c3ccc(F)cc3)sc2c1 = 7.57
Nc1ccccc1-c1nc2ccccc2s1 = 7.71
CNc1cc(N)ccc1-c1nc2ccc(O)cc2s1 = 7.02
CNc1ccc2nc(-c3ccc(O)cc3F)sc2c1 = 8.92
COc1cc(OC)c2nc(-c3ccc(F)cc3)sc2c1 = 6.94

[P] COc1cccc2nc(-c3ccc(F)cc3)sc12
[Q] COc1ccc2nc(-c3ccc(F)cc3O)sc2c1
Compare P and Q and name the one whose reported pKi is smaller. Your choice should be expressed through its label.
P

----------
Target: synthetic Aβ(1-40) (Homo sapiens, UniProt P05067)
Construct: analyzed, using synthetic Aβ(1-40)
Sequence (P05067 672-711): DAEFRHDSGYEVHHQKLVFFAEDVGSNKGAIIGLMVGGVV
Test: Competition of [3H]BTA-1 binding from synthetic Aβ(1-40)
Conditions: inhibition constant for competition of [3H]BTA-1 binding from synthetic Aβ(1-40), phosphate-buffered saline pH 7.4
pKi: −log10 of the molar value.
parameter measured: pKi

The cases that follow already have their pKi on record.
COc1ccc2sc(-c3ccc(F)cc3)nc2c1 = 7.87
COc1ccc(OC)c2sc(-c3ccc(F)cc3)nc12 = 6.48
Nc1ccc2nc(-c3ccc(F)cc3)sc2c1 = 7.07
CNc1ccc2nc(-c3ccc(OC)cc3)sc2c1 = 8.74

[1] Nc1cc(F)ccc1-c1nc2ccccc2s1
[2] COc1ccc(-c2nc3ccc(N(C)C)cc3s2)cc1
Compare reported pKi values for 1 and 2 . Which is lower? Answer = label.
1
(1: 8.31, 2: 8.89)

----------
Target: synthetic Aβ(1-40) (Homo sapiens, UniProt P05067)
pKi: −log10 of the molar value.
parameter measured: pKi

Oc1cccc2sc(-c3ccc(F)cc3)nc12 = 6.42
CNc1c(F)c(F)c(-c2nc3ccc(O)cc3s2)c(F)c1F = 6.56
COc1ccc2nc(-c3c(F)c(F)c(N)c(F)c3F)sc2c1 = 6.92

[1] CNc1ccc(-c2nc3ccc(OCCOCCOCCF)cc3s2)cc1
[2] COc1cccc2sc(-c3ccc(F)cc3)nc12
Compare 1 and 2 and name the one whose reported pKi is smaller. # respond with the chosen item's label
2
(2: 6.22, 1: 8.31)

[a] CNc1ccc(-c2nc3ccc(O)cc3s2)c(N)c1
[b] COc1ccc2nc(-c3ccc(F)c(F)c3)sc2c1
[c] CNc1c(F)c(F)c(-c2nc3ccc(OC)cc3s2)c(F)c1F
[d] OCc1ccc(-c2nc3ccc(O)cc3s2)cc1
Put the entries in order of pKi, starting with the largest number. Would you mind listing the labels in the order asked for?
a, c, b, d
